- Tested on: MDA-MB-468 basal breast cancer cell line
- Assay comment: Cell growth inhibition, Sulforhodamine B assay (SRB)
- Format: cell-based
- Conditions used: Homo sapiens, MDA-MB-468, 120 h; 5 days culture, SRB; read-out: Cell Line GI50 Range, MDA-MB-468
- Description: Breast cancer cells (MCF-7, MDA-MB-468, HCC1954), colon cancer cells (SW620) and lung cancer cells (A549), together with human mammary epithelial primary cells (HMEC), were seeded (1000 to 4000 per 80 μl per well depending on the cell growth rate) into 96 well plates, 24 hours before compound overlay. […] Sulforhodamine B (purchased from Sigma, Oakville, ON, Canada) is a water-soluble dye that binds to the basic amino acids of the cellular proteins. […] Absorbance is read at 570 nm. […]
Measured quantity: GI50

Q: # get_value(readout='GI50', item= CC(C)c1ccc2c(c1)/C(=C\c1ccc3c(/C=C/c4ccncc4)n[nH]c3c1)C(=O)N2 [Example A127, 2,2,2-trifluoroacetate] )
A: < 5 µM

Q: # get_value(readout='GI50', item= COc1ccc2c(c1)C(=Cc1ccc3c(-c4ccc(N5CCN(C)CC5)nc4)n[nH]c3c1)C(=O)N2 (mixture of isomers) )
A: < 5 µM

Q: # get_value(readout='GI50', item= `O=C1Nc2cc(Cl)ccc2/C1=C\c1ccc2[nH]nnc2c1` )
A: 5 to 20 µM

Q: # get_value(readout='GI50', item= `Cc1ncsc1/C=C/c1n[nH]c2cc(/C=C3/C(=O)Nc4ccccc43)ccc12` )
A: < 5 µM

Q: # get_value(readout='GI50', item= `O=C1Nc2ccc(F)cc2/C1=C/c1ccc2cn[nH]c2c1` )
A: 5 to 20 µM

Q: # get_value(readout='GI50', item= `O=C1Nc2ccccc2/C1=C\c1ccc2[nH]cnc2c1` )
A: < 5 µM

Q: # get_value(readout='GI50', item= O=C1Nc2ccccc2C1=Cc1ccc2c(/C=C/c3ccccn3)n[nH]c2c1 (mixture of isomers) )
A: < 5 µM

Q: # get_value(readout='GI50', item= CNC(=O)c1ccc2c(c1)NC(=O)C2=Cc1ccc2cn[nH]c2c1 (mixture of isomers) )
A: 20 to 50 µM
